# Species: Rattus norvegicus
# ASSAY SUMMARY: DrugMatrix - Regimen: Daily Repeat
# Assay type: toxicity, organism-based, Sprague-Dawley
# Parameters: regimen Daily Repeat, gender Male, age 6-8 weeks
# CONDITION SUMMARY: in vivo, po, 0 mg/kg, 72 h, tissue Blood, route oral GAVAGE, dose level Control, time 3 day, […]
Give measured LYMPHOCYTE for each item. Keep answers brief.
Numbers only, in %.

Field: example entries. Status: answers known.
COCCOC(=O)C1=C(C)NC(C)=C(C(=O)OC(C)C)C1c1cccc([N+](=O)[O-])c1 (stereo unspecified) ... 90.33
COc1ccc2[nH]c([S+]([O-])Cc3ncc(C)c(OC)c3C)nc2c1 (stereo unspecified) ... 91

// input: 4 molecules below; output: LYMPHOCYTE for each
1. CC(=O)Nc1cccc(O)c1
2. C[C@H]1O[C@@H](O[C@H]2[C@@H](O)C[C@H](O[C@H]3[C@@H](O)C[C@H](O[C@H]4CC[C@@]5(C)[C@H](CC[C@@H]6[C@@H]5CC[C@]5(C)[C@@H](C7=CC(=O)OC7)CC[C@]65O)C4)O[C@@H]3C)O[C@@H]2C)C[C@H](O)[C@@H]1O
3. CCOC(=O)C(C)(C)Oc1ccc(Cl)cc1 [CLOFIBRATE]
4. CC(=O)Nc1ccc(O)cc1

Found:
[88.83, 94.67, 86, 90.17]

* * *

# Organism: Rattus norvegicus
# ASSAY SUMMARY: DrugMatrix - Regimen: Daily Repeat
# Format: toxicity, organism-based, Sprague-Dawley
# Set-up: regimen Daily Repeat, gender Male, age 6-8 weeks
# CONDITION SUMMARY: in vivo, po, 0 mg/kg, 72 h, tissue Blood, route oral GAVAGE, dose level Control, time 3 day, vehicle 100 % WATER
Lab note: anything with ABSOLUTE MONOCYTE below 100 CELLS/uL is marked T; values at 100 CELLS/uL or higher are marked F.

Below, 5 molecules whose answers are already recorded.
C[N+](C)(C)CCO.[Cl-] [CHOLINE CHLORIDE] ... T
Cc1ncc([N+](=O)[O-])n1CCO ... F
Nc1ccn([C@@H]2CS[C@H](CO)O2)c(=O)n1 ... T
CC(C)C[C@H](NC(=O)[C@@H](O)[C@H](N)Cc1ccccc1)C(=O)O ... F
ClC(Cl)Cl [CHLOROFORM] ... F

Now consider a different molecule.
Lookup: Dear reviewer, please state whether CC(C)NCC(O)COc1cccc2ccccc12 (stereo unspecified) has ABSOLUTE MONOCYTE strictly beneath 100 CELLS/uL.
Found: F

* * *

Hi there, I'd appreciate the recorded MEAN CORPUSCULAR HEMOGLOBIN for every entry that follows.
# Species on record: Rattus norvegicus
# ASSAY SUMMARY: DrugMatrix - Regimen: Daily Repeat
# Assay type: toxicity, organism-based, Sprague-Dawley
# Parameters: regimen Daily Repeat, gender Male, age 6-8 weeks
# CONDITION SUMMARY: in vivo, po, 0 mg/kg, 72 h, tissue Blood, route oral GAVAGE, dose level Control, time 3 day, vehicle .5 % CMC
One number for each entry, in pg.

Example compounds with recorded MEAN CORPUSCULAR HEMOGLOBIN:
CN1CCC(=C2c3ccccc3C=Cc3ccccc32)CC1 [CYPROHEPTADINE] ... 23.64
C#C[C@]1(O)CC[C@H]2[C@@H]3CCc4cc(OC)ccc4[C@H]3CC[C@@]21C [MESTRANOL] ... 24.67
OC(CCN1CCCCC1)(c1ccccc1)C1CCCCC1 (stereo not drawn) [TRIHEXYPHENIDYL] ... 24.78
Cc1onc(-c2ccccc2)c1-c1ccc(S(N)(=O)=O)cc1 [VALDECOXIB] ... 19.72
C[C@](O)(CS(=O)(=O)c1ccc(F)cc1)C(=O)Nc1ccc(C#N)c(C(F)(F)F)c1 [(R)-BICALUTAMIDE] ... 24.6

// each listed compound needs a value for MEAN CORPUSCULAR HEMOGLOBIN
1. CC(=O)CC(c1ccccc1)c1c(O)c2ccccc2oc1=O (stereo not drawn) [WARFARIN]
2. CN1C(=O)COc2c(C(=O)NC3CN4CCC3CC4)cc(Cl)cc21 (stereo not drawn) [AZASETRON]
3. CC[C@@H](CO)NCCN[C@@H](CC)CO [ETHAMBUTOL]

Found:
[23.73, 24.6, 24.1]

* * *

For each record, write down the corresponding MEAN CORPUSCULAR HEMOGLOBIN CONCENTRATION.
# Organism: Rattus norvegicus
# ASSAY SUMMARY: DrugMatrix - Regimen: Daily Repeat
# Assay type: toxicity, organism-based, Sprague-Dawley
# Design: regimen Daily Repeat, gender Male, age 6-8 weeks
# CONDITION SUMMARY: in vivo, po, 0 mg/kg, 120 h, tissue Blood, route oral GAVAGE, dose level Control, time 5 day, vehicle 100 % WATER
Numbers only, in G/DL.

# count of solved cases: 2
CC(C)NCC(O)COc1cccc2ccccc12 (stereo not given) ... 37.35
COc1cc2ncnc(Nc3ccc(F)c(Cl)c3)c2cc1OCCCN1CCOCC1 ... 30.38

I need MEAN CORPUSCULAR HEMOGLOBIN CONCENTRATION for every entry listed below, if you could help.
1. C[C@@H]1C[C@@H]([C@H](O)CC2CC(=O)NC(=O)C2)C(=O)[C@@H](C)C1 [CYCLOHEXIMIDE]
2. C[N+](C)(C)CCO.[Cl-] [CHOLINE CHLORIDE]

Found:
[37.8, 39.88]

Dear colleague, could you please provide MEAN CORPUSCULAR HEMOGLOBIN CONCENTRATION for the compounds listed below?
1. CC(C)C[C@H](NC(=O)[C@@H](O)[C@H](N)Cc1ccccc1)C(=O)O
2. COC(=O)C1=C(C)NC(C)=C(C(=O)OCC(C)C)C1c1ccccc1[N+](=O)[O-] (stereo not given)
3. Cc1ncc([N+](=O)[O-])n1CCO
4. Nc1ccn([C@@H]2CS[C@H](CO)O2)c(=O)n1
5. ClC(Cl)Cl [CHLOROFORM]
6. CC(C)(C)c1ccc(C(=O)CCCN2CCC(OC(c3ccccc3)c3ccccc3)CC2)cc1

Found:
39
39.57
38.52
38.82
38.52
40.08

* * *

# Species: Rattus norvegicus
# ASSAY SUMMARY: DrugMatrix - Regimen: Daily Repeat
# Type: toxicity, organism-based, Sprague-Dawley
# Parameters: regimen Daily Repeat, gender Male, age 6-8 weeks
# CONDITION SUMMARY: in vivo, po, 0 mg/kg, 72 h, tissue Blood, route oral GAVAGE, dose level Control, time 3 day, vehicle 100 % WATER
METRIC NAME: NUCLEATED RED BLOOD CELLS

C[N+](C)(C)CCO.[Cl-] [CHOLINE CHLORIDE] ... 0 /100WBC
CCCC(CCC)C(=O)O [VALPROIC ACID] ... 0 /100WBC
CC(C)C[C@H](NC(=O)[C@@H](O)[C@H](N)Cc1ccccc1)C(=O)O [UBENIMEX] ... 0 /100WBC

Could I get NUCLEATED RED BLOOD CELLS for every one of these entries?
1. Cc1ncc([N+](=O)[O-])n1CCO [METRONIDAZOLE]
2. C[C@@H]1C[C@@H]([C@H](O)CC2CC(=O)NC(=O)C2)C(=O)[C@@H](C)C1 [CYCLOHEXIMIDE]
3. CC(C)(C)c1ccc(C(=O)CCCN2CCC(OC(c3ccccc3)c3ccccc3)CC2)cc1 [EBASTINE]

Found:
["0 /100WBC", "0 /100WBC", "0.17 /100WBC"]

* * *

# Species on record: Rattus norvegicus
# ASSAY SUMMARY: DrugMatrix - Regimen: Daily Repeat
# Assay type: toxicity, organism-based, Sprague-Dawley
# Design: regimen Daily Repeat, gender Male, age 6-8 weeks
# CONDITION SUMMARY: in vivo, po, 0 mg/kg, 120 h, tissue Blood, route oral GAVAGE, dose level Control, time 5 day, vehicle .5 % CMC
Hi, to clarify the labels: t covers NEUTROPHIL from 8% upward, f covers anything below 8%.

Lookup: Please check the record CO[C@H]1/C=C/O[C@@]2(C)Oc3c(C)c(O)c4c(c3C2=O)C2=NC3(CCN(CC(C)C)CC3)NC2=C(NC(=O)/C(C)=C\C=C\[C@H](C)[C@H](O)[C@@H](C)[C@@H](O)[C@@H](C)[C@H](OC(C)=O)[C@@H]1C)C4=O and state if its NEUTROPHIL is at or above 8%.
Found: f

Lookup: Moving on to CN1CCC(=C2c3ccccc3C=Cc3ccccc32)CC1
Found: t

Lookup: Then this molecule: CC(C)[C@H]1CC[C@H](C(=O)N[C@H](Cc2ccccc2)C(=O)O)CC1 [NATEGLINIDE]
Found: t

Lookup: Try this molecule too: CN1C(=O)COc2c(C(=O)NC3CN4CCC3CC4)cc(Cl)cc21 (centres undefined)
Found: t

Lookup: Thanks! And Clc1ccc2c(c1)C(N1CCNCC1)=Nc1ccccc1O2 ?
Found: f

These entries and their values trace back to ChEMBL document CHEMBL3885881.
